Here, each record is paired with measured melting point data.

Reference set, count: 6
compound	readoutValue
Cc1cc(-c2cc(C(F)(F)F)n3ncc(-c4nc(-c5cccc(S(N)(=O)=O)c5)no4)c3n2)ccc1C(F)(F)F	270 °C
CCC(CC)/C(N)=C(\C)C#N	150 °C
O=C1Nc2cccnc2N(C(=O)NCCN2CCCCC2CN2CCCCCC2)c2ccccc21 (stereo not given)	156 to 158 °C
COC(=O)CCCON1CCNC1=Nc1c(Cl)cccc1Cl	95 to 96 °C
CC(C)[Si](C)(C)CCCSCCNC(=O)n1cc(F)c(=O)[nH]c1=O	113 to 114 °C
CN(c1cc2occc(=O)c2cc1Oc1ccccc1)S(C)(=O)=O	187 to 189 °C

Q) Annotate the compound COc1cc2c(cc1OC(C)=O)C1Cc3ccc(OC)c(OC(C)=O)c3CN1CC2 (stereo not given) with its measured melting point.
A) 212 to 214 °C

Q) Annotate the compound `CC(C)C(=O)O[C@H]1[C@H](C)OC(=O)[C@@H](NC(=O)OC(C)(C)C)COC(=O)[C@@H]1CC(=O)O` with its measured melting point.
A) 164 to 167 °C

Q) Annotate the compound `Cn1cc(-c2ccccc2)c(=O)c(-c2cc(Br)ccc2F)c1` with its measured melting point.
A) 148 to 150 °C

Q) Annotate the compound O=C(CN1CCCNC1=O)N1CCC(C2c3ncc(Br)cc3CCc3cc(Cl)cc(Br)c32)CC1 (single isomer, unassigned; (+)) with its measured melting point.
A) 155 to 156 °C

Q) Annotate the compound `C=C(CCl)COc1ccc(C(=O)OC)cc1CS(=O)(=O)c1ccccc1` with its measured melting point.
A) 92 to 93 °C

Q) Annotate the compound C#CCN(C(=O)c1cn(C)cc1C(F)(F)F)c1cccc2c1C(C)CC2(C)C (stereo not given) with its measured melting point.
A) 142 to 144 °C

Q) Annotate the compound `CCOc1nc(NCc2ccco2)nc(Nc2ccc3[nH]cnc3c2)n1` with its measured melting point.
A) 110 to 112 °C

Q) Annotate the compound `N#CCc1ccc(-c2nc3ccccc3o2)cc1Br` with its measured melting point.
A) 190 to 191 °C

Q) Annotate the compound `O=[N+]([O-])c1ccc(-n2cccn2)c(F)c1` with its measured melting point.
A) 128 to 129 °C

Q) Annotate the compound `Cc1ccc(O)c(Cl)n1` with its measured melting point.
A) 190 to 191 °C

Q) Annotate the compound `COc1ccc(N2CCOCC2)c2sc(NC(=O)NC3CCCC3)nc12` with its measured melting point.
A) 191 to 194 °C

Q) Annotate the compound `CC(C)(C)OC(=O)N1CCn2c(c(C(N)=O)c(C#N)c2C2CCN(S(C)(=O)=O)CC2)C1` with its measured melting point.
A) 220 °C

* * *

Here, each record is paired with measured melting point data.

Reference set, count: 4
molecule	melting point
Cc1cc(-c2[nH]c3ccc(O)cc3c2C)cc(C)c1O	174 to 176 °C
NC(=O)N(O)CC1=CCC(c2ccccc2)CC1 (stereo not given)	142 to 143 °C
O=c1ccn(-c2ccccc2F)nc1-c1ccnn1-c1ccccc1	124 to 125 °C
CC(=O)CN1CCc2c(c(=O)oc3cc(C)c(Cl)cc23)C1	172 to 175 °C

Q) Annotate the molecule CC(C)(C)OC(=O)C(Nc1ccccc1)c1cccc(Br)c1 (racemic) with its measured melting point.
A) 90 °C

Q) Annotate the molecule `OCc1cc(-c2ccc(C(F)(F)F)cc2)on1` with its measured melting point.
A) 111 to 113 °C

Q) Annotate the molecule O=C(O)C(Sc1ccccc1)c1ccc(Oc2ccc(Cl)cc2)cc1 (stereo not given) with its measured melting point.
A) 156 to 158 °C

Q) Annotate the molecule COc1cc(N)c(Cl)cc1C(=O)N[C@H]1CCN(CCCC(=O)N2CCC(=O)CC2)C[C@H]1OC (relative stereo) with its measured melting point.
A) 157 °C
